Quick reference: pIC50 of the listed items.
- Tested on: MCF-7
- Assay: Cytotoxicity assay (SRB), MCF-7
- Assay type: cell-based
- Details: Homo sapiens, MCF7, 72 h, MCF-7 cells, SRB, three days; read-out: In Vitro Cellular Activity IC50 MCF-7
pIC50: −log10 of the molar value.
Observation type: pIC50

- Compound: "CC1CN(c2ccc(N/C=C3\\C(=O)NC(=O)c4ccc(Br)cc43)cc2)CC(C)N1 (centres unmarked)"
  System tested: "MCF-7"
  Value relation sign: "="
  Test value: 5.77
- Compound: "CCCOc1ccc(CN/C=C2\\C(=O)NC(=O)c3ccc(-c4ccc(F)c(F)c4)cc32)cc1O"
  System tested: "MCF-7"
  Value relation sign: "="
  Test value: 5.04
- Compound: "O=C1NCc2ccccc2C1=CNc1ccc(CN2CCCCC2)cc1"
  System tested: "MCF-7"
  Value relation sign: "="
  Test value: 5.41
- Compound: "O=C1NC(=O)c2ccccc2/C1=C/Nc1ccc2cn[nH]c2c1"
  System tested: "MCF-7"
  Value relation sign: "="
  Test value: 4.95
- Compound: "COc1ccc(CN/C=C2\\C(=O)NC(=O)c3cc(Br)ccc32)cc1O"
  System tested: "MCF-7"
  Value relation sign: "<"
  Test value: 4.30
- Compound: "O=C1NC(=O)c2ccccc2/C1=C/Nc1ccc(CCN2CCCC2)cc1"
  System tested: "MCF-7"
  Value relation sign: "="
  Test value: 5.10
- Compound: "CCCOc1ccc(CNC=C2C(=O)NC(=O)c3ccc(-n4cccc4)cc32)cc1O"
  System tested: "MCF-7"
  Value relation sign: "="
  Test value: 5.20
- Compound: "C/C=C(\\C)C(=O)Nc1ccc(CN/C=C2\\C(=O)NC(=O)c3ccc(I)cc32)cc1O"
  System tested: "MCF-7"
  Value relation sign: "="
  Test value: 5.21
